Reference source for all entries: ChEMBL document CHEMBL5665443

inhibition values by entry
Molecular target: Single-strand selective monofunctional uracil DNA glycosylase (Homo sapiens) (UniProt Q53HV7);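 note: enzymatic SMUG1 assay coupled with APE1, reading fluorescence at 594 nm released when a quenched double-stranded DNA oligonucleotide substrate is cleaved and separated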
Sequence (Q53HV7 whole entry): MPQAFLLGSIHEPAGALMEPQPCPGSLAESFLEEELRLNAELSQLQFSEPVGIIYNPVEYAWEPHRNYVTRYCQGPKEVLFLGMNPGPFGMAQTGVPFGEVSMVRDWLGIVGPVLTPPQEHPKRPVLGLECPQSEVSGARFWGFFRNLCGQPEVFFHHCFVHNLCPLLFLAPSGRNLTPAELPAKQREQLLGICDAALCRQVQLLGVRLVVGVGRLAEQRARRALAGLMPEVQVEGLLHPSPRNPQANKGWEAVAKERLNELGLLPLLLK
Conditions: Compound Concentration 10.0 uM, Hit No
Description: Inhibition of SMUG1 by quantifying inhibition of SMUG1-mediated cleavage and dissociation of quenched duplex DNA oligonucleotides, measured as fluorescence at 594 nm. To generate a functional strand incision and increase turn-over this assay is coupled to APE1.
The reply should be a number in %, with the unit left off.

CCn1c(=O)c(C)cn(Cc2nnc(-c3ccc(F)c(OC)c3F)s2)c1=O
17.9
CS(=O)(=O)NC[C@H]1CC[C@H](Nc2nc3c(s2)CCSc2ccccc2-3)CC1
-4.83
CCCCCNC(=N)N/N=C/c1c[nH]c2ccc(OC)cc12
-3.67

Ask: What measured inhibition goes with Cc1c(C(=O)NC2CCCCC2)sc2nc3ccc(N)cc3n12 ?
Result: 8.2

Ask: What measured inhibition goes with N#Cc1ccc2[nH]cc(CCCCN3CCN(c4ccc5oc(C(N)=O)cc5c4)CC3)c2c1 ?
Result: 10.3

Ask: What measured inhibition goes with CC(C)NCC(O)COc1cccc2ccccc12 (stereo not drawn) ?
Result: 3.41
